Hey, just so you know, these numbers are from paper PMC11845761.

Experiment: Tissue concentrations of vinorelbine and deacetylvinorelbine 4 h after i.v. vinorelbine in CES2-modified mice
Format: in vivo, mouse
Details: male, mouse, small intestine tissue, intravenous, 10 mg/kg, male Ces2^–/–V mice, i.v. vinorelbine 10 mg/kg, read-out: CSI (small intestine tissue concentration)
endpoint: concentration at 4 h (ng/g)
The reply should be a number in ng/g, with the unit left off.

Ask: Which concentration at 4 h is listed for CCC1=C[C@@H]2CN(C1)Cc1c([nH]c3ccccc13)[C@@](C(=O)OC)(c1cc3c(cc1OC)N(C)[C@H]1[C@@](O)(C(=O)OC)[C@H](OC(C)=O)[C@]4(CC)C=CCN5CC[C@]31[C@@H]54)C2 [Vinorelbine, reference compound] ?
Reply: 7680

###

Assay: Plasma pharmacokinetics of capecitabine and its metabolites after oral capecitabine in CES2-modified mice
Assay type: in vivo, mouse
Details: female, mouse, plasma, po, 500 mg/kg, female Ces2^–/–V mice; oral capecitabine 500 mg/kg; plasma; read-out: Tmax
endpoint: Tmax (min)
The reply should be a number in min, with the unit left off.

Ask: Which Tmax is listed for O=c1[nH]cc(F)c(=O)[nH]1 [5-FU, 5-fluorouracil, reference compound] ?
Reply: 51.6

Ask: Entry to check: "C[C@H]1O[C@@H](n2cc(F)c(N)nc2=O)[C@H](O)[C@@H]1O"
Reply: 36.6

Ask: Entry to check: CCCCCOC(=O)Nc1nc(=O)n([C@@H]2O[C@H](C)[C@@H](O)[C@H]2O)cc1F [Capecitabine, reference compound]
Reply: 9.6

###

Tmax reference
Assay: Plasma pharmacokinetics of capecitabine and its metabolites after oral capecitabine in CES2-modified mice
Assay type: in vivo, mouse
Conditions: female, mouse, plasma, po, 500 mg/kg, female wild-type mice; oral capecitabine 500 mg/kg; plasma; read-out: Tmax
The reply should be a number in min, with the unit left off.

Example entries and their recorded answers appear below.
molecule: C[C@H]1O[C@@H](n2cc(F)c(N)nc2=O)[C@H](O)[C@@H]1O
endpoint: Tmax
assay.value: 15
--
molecule: CCCCCOC(=O)Nc1nc(=O)n([C@@H]2O[C@H](C)[C@@H](O)[C@H]2O)cc1F [Capecitabine, reference compound]
endpoint: Tmax
assay.value: 11.4

Okay, now this molecule:
Ask: Which Tmax is listed for O=c1[nH]cc(F)c(=O)[nH]1 [5-FU, 5-fluorouracil, reference compound] ?
Reply: 30

###

Test: Tissue concentrations of vinorelbine and deacetylvinorelbine 4 h after oral vinorelbine in CES2-modified mice
Format: in vivo, mouse
Settings: male, mouse, liver, oral, 10 mg/kg, male Ces2^–/– mice, oral vinorelbine 10 mg/kg, read-out: Cliver (liver concentration)
endpoint: concentration at 4 h (ng/g)
The reply should be a number in ng/g, with the unit left off.

Ask: Which concentration at 4 h is listed for CCC1=C[C@@H]2CN(C1)Cc1c([nH]c3ccccc13)[C@@](C(=O)OC)(c1cc3c(cc1OC)N(C)[C@H]1[C@@](O)(C(=O)OC)[C@H](OC(C)=O)[C@]4(CC)C=CCN5CC[C@]31[C@@H]54)C2 [Vinorelbine, reference compound] ?
Reply: 8470

###

Assay: Tissue concentrations of capecitabine and its metabolites 2 h after oral capecitabine in CES2-modified mice
Assay type: in vivo, mouse
Conditions: female Ces2^–/–A mice, oral capecitabine 500 mg/kg
endpoint: Small intestine concentration ratio (metabolite/capecitabine)
Just the number, please.

molecule: NCC(F)C(=O)O (stereo not shown)
assay.value: 0.15
//
molecule: O=c1[nH]cc(F)c(=O)[nH]1 [5-FU, 5-fluorouracil, reference compound]
assay.value: 0.32
//
molecule: C[C@H]1O[C@@H](n2cc(F)c(=O)[nH]c2=O)[C@H](O)[C@@H]1O
assay.value: 0.33

Okay, now this molecule:
Ask: Which Small intestine concentration ratio (metabolite/capecitabine) is listed for "C[C@H]1O[C@@H](n2cc(F)c(N)nc2=O)[C@H](O)[C@@H]1O" ?
Reply: 0.45

###

Test: Tissue concentrations of vinorelbine and deacetylvinorelbine 4 h after i.v. vinorelbine in CES2-modified mice
Assay type: in vivo, mouse
Settings: male, mouse, small intestine contents, intravenous, 10 mg/kg, male Ces2^–/–A mice, i.v. vinorelbine 10 mg/kg, read-out: CSIC (small intestine contents concentration)
endpoint: concentration at 4 h

Ask: Which concentration at 4 h is listed for CCC1=C[C@@H]2CN(C1)Cc1c([nH]c3ccccc13)[C@@](C(=O)OC)(c1cc3c(cc1OC)N(C)[C@H]1[C@@](O)(C(=O)OC)[C@H](OC(C)=O)[C@]4(CC)C=CCN5CC[C@]31[C@@H]54)C2 [Vinorelbine, reference compound] ?
Reply: 47200 ng/g

###

Assay: Plasma pharmacokinetics of vinorelbine and deacetylvinorelbine after oral vinorelbine in CES2-modified mice
Type: in vivo, mouse
Details: mouse; male wild-type mice; oral vinorelbine 10 mg/kg; plasma; read-out: Cmax
endpoint: Cmax (ng/mL)
The reply should be a number in ng/mL, with the unit left off.

Ask: Which Cmax is listed for CCC1=C[C@@H]2CN(C1)Cc1c([nH]c3ccccc13)[C@@](C(=O)OC)(c1cc3c(cc1OC)N(C)[C@H]1[C@@](O)(C(=O)OC)[C@H](OC(C)=O)[C@]4(CC)C=CCN5CC[C@]31[C@@H]54)C2 [Vinorelbine, reference compound] ?
Reply: 149

###

Assay: Plasma pharmacokinetics of capecitabine and its metabolites after oral capecitabine in CES2-modified mice
Type: in vivo, mouse
Details: female, mouse, plasma, po, 500 mg/kg, female wild-type mice; oral capecitabine 500 mg/kg; plasma; read-out: AUC0-2h
AUC(0-t) reference
The reply should be a number in ng·h/mL, with the unit left off.

Example entries and their recorded answers appear below.
compound: CCCCCOC(=O)Nc1nc(=O)n([C@@H]2O[C@H](C)[C@@H](O)[C@H]2O)cc1F [Capecitabine, reference compound]
result.units: ng·h/mL
assay.value: 5850

compound: O=c1[nH]cc(F)c(=O)[nH]1 [5-FU, 5-fluorouracil, reference compound]
result.units: ng·h/mL
assay.value: 168

Okay, now this compound:
Ask: Which AUC(0-t) is listed for "C[C@H]1O[C@@H](n2cc(F)c(N)nc2=O)[C@H](O)[C@@H]1O" ?
Reply: 123000

###

Assay: Tissue concentrations of vinorelbine and deacetylvinorelbine 4 h after oral vinorelbine in CES2-modified mice
Format: in vivo, mouse
Settings: male, mouse, small intestine contents, oral, 10 mg/kg, male wild-type mice, oral vinorelbine 10 mg/kg, read-out: CSIC (small intestine contents concentration)
endpoint: concentration at 4 h (ng/g)
The reply should be a number in ng/g, with the unit left off.

Ask: Which concentration at 4 h is listed for CCC1=C[C@@H]2CN(C1)Cc1c([nH]c3ccccc13)[C@@](C(=O)OC)(c1cc3c(cc1OC)N(C)[C@H]1[C@@](O)(C(=O)OC)[C@H](OC(C)=O)[C@]4(CC)C=CCN5CC[C@]31[C@@H]54)C2 [Vinorelbine, reference compound] ?
Reply: 77000

###

Test: Tissue concentrations of vinorelbine and deacetylvinorelbine 4 h after oral vinorelbine in CES2-modified mice
Assay type: in vivo, mouse
Details: male, mouse, liver, oral, 10 mg/kg, male wild-type mice, oral vinorelbine 10 mg/kg, read-out: Cliver (liver concentration)
Procedure: For capecitabine 2-h experiments, 6–7 female mice received oral capecitabine (500 mg/kg, 10 μL/g), and tail vein blood samples were collected at 0.125, 0.25, 0.5 and 1 h after drug administration. […] Concentrations of capecitabine (and its metabolites) and vinorelbine (and its metabolite) in mouse plasma samples and organ homogenates were determined using two independent validated high-performance liquid chromatography-tandem mass spectrometry assays. […]
endpoint: concentration at 4 h (ng/g)
The reply should be a number in ng/g, with the unit left off.

Ask: Which concentration at 4 h is listed for CCC1=C[C@@H]2CN(C1)Cc1c([nH]c3ccccc13)[C@@](C(=O)OC)(c1cc3c(cc1OC)N(C)[C@H]1[C@@](O)(C(=O)OC)[C@H](OC(C)=O)[C@]4(CC)C=CCN5CC[C@]31[C@@H]54)C2 [Vinorelbine, reference compound] ?
Reply: 1530

###

Cmax reference
Assay: Plasma pharmacokinetics of capecitabine and its metabolites after oral capecitabine in CES2-modified mice
Format: in vivo, mouse
Conditions: female, mouse, plasma, po, 500 mg/kg, female Ces2^–/–A mice; oral capecitabine 500 mg/kg; plasma; read-out: Cmax

Example entries and their recorded answers appear below.
compound: CCCCCOC(=O)Nc1nc(=O)n([C@@H]2O[C@H](C)[C@@H](O)[C@H]2O)cc1F [Capecitabine, reference compound]
assay.value: 47000 ng/mL

compound: C[C@H]1O[C@@H](n2cc(F)c(N)nc2=O)[C@H](O)[C@@H]1O [5’-DFCR, 5’-deoxy-5-fluorocytidine]
assay.value: 117000 ng/mL

Okay, now this compound:
Ask: Which Cmax is listed for O=c1[nH]cc(F)c(=O)[nH]1 [5-FU, 5-fluorouracil, reference compound] ?
Reply: 159 ng/mL
